Tested on: Mycobacterium tuberculosis
Assay Explanation: Antimicrobial activity against Mycobacterium tuberculosis H37Rv ATCC 27294 incubated for 7 days by BacTiter-Glo cell viability assay
Assay type: functional, organism-based
Condition Description: H37Rv ATCC 27294, BacTiter-Glo, 168 h

Compound	Units Symbol	Comparison Operator	IC50
CC(=O)c1c(C(F)(F)F)[n+]([O-])c2cc(F)c(N3CCC(O)CC3)cc2[n+]1[O-]	µM	=	5.4
N[C@@H]1CONC1=O [CYCLOSERINE]	µM	=	20.8
Cc1ccc2c(c1)[n+]([O-])c(C(=O)/C=C/c1ccc([N+](=O)[O-])s1)c(C)[n+]2[O-]	µM	>	100
Cc1ccc2c(c1)[n+]([O-])c(C(=O)/C=C/c1ccccc1)c(C)[n+]2[O-]	µM	=	7.2
CC(=O)c1c(C(F)(F)F)[n+]([O-])c2cc(F)c(N3CCCCC3)cc2[n+]1[O-]	µM	=	1

###

Tested on: J774
Assay Explanation: Cytotoxicity against mouse J774 cells assessed as cell viability at 10 times lower MIC by MTT assay relative to control
Format: cell-based
Mark Met for Activity under 70%, Not met if at or over.

Compound	Class Name
O=C(c1ccco1)c1c(C(F)(F)F)[n+]([O-])c2cc(Cl)c(N3CCOCC3)cc2[n+]1[O-]	Not met
CO[C@H]1/C=C/O[C@@]2(C)Oc3c(C)c(O)c4c(O)c(c(/C=N/N5CCN(C)CC5)c(O)c4c3C2=O)NC(=O)/C(C)=C\C=C\[C@H](C)[C@H](O)[C@@H](C)[C@@H](O)[C@@H](C)[C@H](OC(C)=O)[C@@H]1C [RIFAMPIN]	Not met
COC(=O)c1c(C(F)(F)F)[n+]([O-])c2ccc(N3CCN(c4ccc(F)cc4)CC3)cc2[n+]1[O-]	Met
CC(=O)c1c(C(F)(F)F)[n+]([O-])c2cc(F)c(N3CCCCC3)cc2[n+]1[O-]	Not met

###

Tested on: Mycobacterium tuberculosis
Assay Explanation: Antimicrobial activity against Mycobacterium tuberculosis H37Rv ATCC 27294 infected in mouse J774 cells assessed as log reduction in bacterial burden at MIC measured 7 days postinfection relative to control
Type: functional

Compound Structure String	log reduction in bacterial burden
CC(=O)c1c(C(F)(F)F)[n+]([O-])c2cc(F)c(N3CCCCC3)cc2[n+]1[O-]	1.5
O=C(c1ccco1)c1c(C(F)(F)F)[n+]([O-])c2cc(Cl)c(N3CCOCC3)cc2[n+]1[O-]	1.57
Cc1c(C(=O)/C=C/c2ccccc2)[n+]([O-])c2cc(Cl)ccc2[n+]1[O-]	1.68
CO[C@H]1/C=C/O[C@@]2(C)Oc3c(C)c(O)c4c(O)c(c(/C=N/N5CCN(C)CC5)c(O)c4c3C2=O)NC(=O)/C(C)=C\C=C\[C@H](C)[C@H](O)[C@@H](C)[C@@H](O)[C@@H](C)[C@H](OC(C)=O)[C@@H]1C	1.73
COC(=O)c1c(C(F)(F)F)[n+]([O-])c2ccc(N3CCN(c4ccc(F)cc4)CC3)cc2[n+]1[O-]	1.41
CC(=O)c1c(C(F)(F)F)nc2cc(F)c(N3CCSCC3)cc2[n+]1[O-]	1.66

###

Overview of recorded IC50 for various molecules
Tested on: Mycobacterium tuberculosis
Assay Explanation: Antimicrobial activity against Mycobacterium tuberculosis H37Rv ATCC 27294 incubated for 7 days by BacTiter-Glo cell viability assay
Type: functional, organism-based
Condition Description: H37Rv ATCC 27294, BacTiter-Glo, 168 h

Molecule	Comparison Operator	IC50 (µM)
COC(=O)c1c(C(F)(F)F)[n+]([O-])c2ccc(N3CCN(c4ccc(F)cc4)CC3)cc2[n+]1[O-]	=	0.5
O=C(c1ccc(F)cc1)c1c(C(F)(F)F)[n+]([O-])c2ccc(F)cc2[n+]1[O-]	=	3.1
Cc1c(C(=O)/C=C/c2ccccc2)[n+]([O-])c2cc(Cl)ccc2[n+]1[O-]	=	1.5
CC(=O)c1c(C(F)(F)F)[n+]([O-])c2cc(N3CCCCC3)c(N3CCCCC3)cc2[n+]1[O-]	=	2.2
NCC[C@H](O)C(=O)N[C@@H]1C[C@H](N)[C@@H](O[C@H]2O[C@H](CN)[C@@H](O)[C@H](O)[C@H]2O)[C@H](O)[C@H]1O[C@H]1O[C@H](CO)[C@@H](O)[C@H](N)[C@H]1O [AMIKACIN]	=	0.102
Cc1c(C(=O)/C=C/c2ccc([N+](=O)[O-])s2)[n+]([O-])c2cc(Cl)ccc2[n+]1[O-]	=	7.3
O=C(c1ccc(F)cc1)c1c(C(F)(F)F)[n+]([O-])c2ccc(Cl)cc2[n+]1[O-]	=	3.7
Cc1c(C(=O)/C=C/c2ccc([N+](=O)[O-])s2)[n+]([O-])c2cc(Cl)c(Cl)cc2[n+]1[O-]	>	100
CCOC(=O)c1c(C(F)(F)F)nc2cc(Cl)c(N3CCOCC3)cc2[n+]1[O-]	>	100
Cc1ccc2c(c1)[n+]([O-])c(C(=O)/C=C/c1ccc([N+](=O)[O-])o1)c(C)[n+]2[O-]	=	29.7
O=C(c1ccc(F)cc1)c1c(C(F)(F)F)[n+]([O-])c2cc(F)c(F)cc2[n+]1[O-]	=	5.2
O=C(c1ccco1)c1c(C(F)(F)F)nc2cc(Cl)c(N3CCOCC3)cc2[n+]1[O-]	>	100
Cc1c(C(=O)/C=C/c2ccc([N+](=O)[O-])o2)[n+]([O-])c2cc(Cl)ccc2[n+]1[O-]	=	13.5
CC[C@@H](CO)NCCN[C@@H](CC)CO [ETHAMBUTOL]	=	1.2
CCc1nc(N)nc(N)c1-c1ccc(Cl)cc1 [PYRIMETHAMINE]	=	23.6
CC(=O)c1c(C(F)(F)F)nc2cc(F)c(N3CCSCC3)cc2[n+]1[O-]	=	1.3
O=C(c1ccco1)c1c(C(F)(F)F)[n+]([O-])c2cc(Cl)c(N3CCOCC3)cc2[n+]1[O-]	=	1.2
